FYI, the data here is from patent US8426447B2.

subjectOfTest: BACE1 (Homo sapiens)
Sequence (P56817 46-501, species assumed): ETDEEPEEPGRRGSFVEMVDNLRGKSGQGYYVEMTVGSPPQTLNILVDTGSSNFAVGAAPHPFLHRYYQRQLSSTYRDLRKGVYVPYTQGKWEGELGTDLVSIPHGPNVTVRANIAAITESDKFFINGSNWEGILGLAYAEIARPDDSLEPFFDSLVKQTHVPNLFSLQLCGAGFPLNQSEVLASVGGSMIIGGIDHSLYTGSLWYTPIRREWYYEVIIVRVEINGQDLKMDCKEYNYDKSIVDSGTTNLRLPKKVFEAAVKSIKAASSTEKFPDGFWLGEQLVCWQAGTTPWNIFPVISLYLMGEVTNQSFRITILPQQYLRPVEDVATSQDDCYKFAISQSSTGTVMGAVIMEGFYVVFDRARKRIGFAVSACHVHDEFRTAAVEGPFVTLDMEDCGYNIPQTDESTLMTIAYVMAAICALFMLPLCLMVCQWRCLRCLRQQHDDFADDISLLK
testDescription: In Vitro Enzymatic BACE FRET (Fluorescence Resonance Energy Transfer) Assay
Format: biochemical
conditionContext: Table IV, class symbols; read-out: BACE1 FRET assay
Procedure: In Vitro Enzymatic BACE FRET (Fluorescence Resonance Energy Transfer) Assay (Enzyme Assay Data in the Example Tables I, II, III & IV) The assay buffer used in this screen is 0.05 M acetate, pH 4.2, 10% DMSO final, 100 uM genapol (which is a nonionic detergent, below its Critical Micelle Concentration). […] The FRET assay is terminated with by addition of Tris buffer, which raises the pH to neutrality, and the fluorescence is determined. […]
Catalogue of IC50 readings, one per entry.

Look over these answered cases.
NC1=N[C@]2(CO1)c1cc(CCC3(O)CCC3)ccc1Oc1ccc(-c3cccnc3)cc12 [compound 859]
< 100 nM
NC1=NC2(CO1)c1cc(-c3cncnc3)ccc1Oc1c(F)cc(C3=CCOCC3)cc12 (stereo in doubt) [Example 295]
< 100 nM
CC(C)(C)C#Cc1ccc2c(c1)[C@]1(COC(N)=N1)c1cc(-c3cccnc3)ncc1O2 [compound 824]
< 100 nM
NC1=N[C@]2(CO1)c1cc(-c3ccccc3)ccc1Oc1ncccc12 [compound 598]
1000 to 5000 nM
CC(C)(C)COc1ccc2c(c1)[C@]1(COC(N)=N1)c1cc(-c3ccc(S(C)(=O)=O)cc3)ccc1O2 [compound 910]
1000 to 5000 nM
NC1=N[C@@]2(CO1)c1cc(-c3cncnc3)ccc1Oc1ccc(-c3cccc(O)c3)cc12 [compound 891]
< 100 nM

Shift focus to the following entry.
Task: Entry under review: NC1=N[C@]2(CO1)c1cc(-c3ccc(C(F)(F)F)cc3)ccc1Oc1ccc(-c3cncnc3)cc12 [compound 811] . Reported IC50?
Output: < 100 nM
